pIC50 for Tyrosine-protein kinase JAK3 (Homo sapiens, UniProt P52333) - collated from the literature.
pIC50: −log10 of the molar value.

Look over these answered cases.
| molecule | pIC50 |
| --- | --- |
| CC(=O)N1CC2(CC(N(C)c3ncnc4[nH]ccc34)C2)C1 | ≤ 5.00 |
| C=CC(=O)N1CCC[C@H]1Cn1nc(-c2ccc(Oc3ccccc3)cc2)c2cnccc21 | < 6.30 |
| Cc1cc(-c2cc3nccn3c(-c3cnn(C4(CCF)CN(S(=O)(=O)C(F)(F)F)C4)c3)n2)[nH]n1 | 6.00 to 7.00 |
| COC12CC3CC(C1)C(Nc1nc(Nc4ccc5c(c4)NC[C@H](O)CO5)ncc1C(N)=O)C(C3)C2 (some centres unmarked) | > 8.00 |
| Cc1cnc2nc1Nc1cccc(c1)CCNC(=O)c1ccc(cc1F)-c1cnc(F)c(c1)N2 | 7.00 to 7.96 |

Consider the molecule N#Cc1ccc2ncn(-c3ncc4nc(-c5cnc(O)nc5O)n(C5CCOCC5)c4n3)c2c1 and give its measured pIC50. > 7.00

Okay, and Cc1cncc(C(=O)N2CCC3(CCC(N(C)c4ncnc5[nH]ccc45)CC3)CC2)n1 ? 5.00 to 6.00

---

Literature-derived IC50 for UniProtKB P52333 follows.

Observe how each entry below is paired with its result.
| molecule | assay system | observed measurement |
| --- | --- | --- |
| Cc1ccnc(NC(=O)c2ccc(Oc3ccnc4[nH]nc(N[C@@H]5CCCN(C(=O)c6ncco6)C5)c34)cc2)c1 | UniProtKB P52333 | > 10000 nM |
| CC[C@@H](n1cc(-c2nc(-c3cnn(C[C@@H](O)CO)c3)cn3nccc23)cn1)C(C)(F)F (single isomer, unassigned) | UniProtKB P52333 | 1000 to 10000 nM |

What measured IC50 goes with Clc1cnc2nc1NCCc1cccc(c1)OCCc1cccc(c1)N2 ? 55 nM

One more molecule: CCOC(=O)Cn1cc(Nc2ncc3ccn(C[C@H]4CC[C@H](N)CC4)c3n2)cn1 < 100 nM

---

Compiled record: pIC50 values for Tyrosine-protein kinase JAK3 (Homo sapiens) across several sources.
pIC50: −log10 of the molar value.

| compound | observed measurement |
| --- | --- |
| CC#CC(=O)N1CC[C@@H](n2nc(-c3ccc(C(=O)Nc4cc(C)ccn4)cc3)c3c(N)ncnc32)C1 | < 6.00 |
| CCOC(=O)C(C)(C)n1cc(Nc2ncc3ccn(CC(CC)CC)c3n2)cn1 | > 7.00 |
| CNC(=O)c1ncc(Nc2nccc(-c3ccc(NC(=O)[C@@H]4CC4(F)F)nc3)n2)cc1C | 6.03 |
| Cc1ccc(C(=O)N[C@H](C)c2ccccc2)cc1-c1ccc2c(c1)[nH]c1ncncc12 | 6.00 to 6.30 |
| CC(C)[C@H](C)n1cc(-c2nc(-c3cnn(C[C@@H](O)CO)c3)cn3nccc23)cn1 | 5.00 to 6.00 |
| O=C(NC1CC(O)(C(F)(F)F)C1)c1noc2c1CN(c1ncnc3[nH]ccc13)CC2 (stereo not shown) | > 7.00 |
| CC[C@H](Cn1ccc2cnc(Nc3cnn(C4CCOC4=O)c3)nc21)C(C)C (stereo partly shown) | > 7.00 |
| CC(C)(C)OC(=O)N1CC2CN(Nc3c(C(N)=O)cnc4[nH]ccc34)CC2C1 (stereo not shown) | 8.22 |
| C=CC(=O)Nc1cccc(N(C)c2nc(Nc3ccccc3)ncc2C)c1 | 7.00 to 8.00 |
| CCC(CC)n1cc(-c2nc(-c3cnn(C[C@@](C)(O)CO)c3)cn3nccc23)cn1 (single isomer, unassigned) | 5.00 to 6.00 |

Given the entry CCC(CC)n1cc(-c2nc(-c3cnn([C@@H]4CCC[C@@H]4O)c3)cn3nccc23)cn1 , report its measured pIC50. 5.00 to 6.00

Consider next the compound O=C(NCCC(F)(F)F)c1nn(C2CCNCC2)c2c1CN(c1ncnc3[nH]ccc13)CC2 in the same way. 5.70 to 6.30

Note, next up: CC(C)(C)OC(=O)N1CC2CN(Nc3ncnc4[nH]ccc34)CC2C1 (stereo not shown) < 6.00

C#Cc1cccc(Nc2cc(Nc3cccc(NC(=O)C=C)c3)ncn2)c1 , same question. ≥ 8.00

// query: O=C(CN1CCN(c2ccccc2)CC1)Nc1cccc(-c2cnc3ccccc3n2)c1 6.57

Repeat with Cc1ccc(N(C)S(C)(=O)=O)c(CNc2nc(-c3cc(F)c(O)cc3CC(F)(F)F)cc3[nH]nc(C(N)=O)c23)c1 6.99

---

The following molecules were reported with IC50 values on Tyrosine-protein kinase JAK3 (Homo sapiens) in different studies.

Example cases with answers are listed next.
| molecule | property label | observed measurement |
| --- | --- | --- |
| Cn1cc(-c2cc3nccn3c(-c3cnn(C4(CC#N)CC5(CCCCC5)C4)c3)n2)cn1 | IC50 | 100 to 1000 nM |
| C[C@@H](Nc1c(C(N)=O)cnn2cc(-c3cccc(CN)c3)cc12)C(C)(C)F | IC50 | 0.7 nM |
| CC#CC(=O)N1CCC2(CC1)CC(n1nc(-c3ccc(Oc4ccccc4)cc3)c3cncnc31)C2 | IC50 | > 500 nM |

Please look up its IC50: C=CC(=O)N1CCC[C@@H](Nc2n[nH]c3nccc(Oc4ccc(C(=O)Nc5nc6c(s5)CCN(C)C6)cc4)c23)C1 < 100 nM

Same for CC(C)C(Cn1ccc2cnc(Nc3cnn(CC(=O)O)c3)nc21)C(C)C < 100 nM

Param item: CCC(Cn1ccc2cnc(Nc3cnn(CC(=O)O)c3)nc21)C(C)C (stereo not shown) < 100 nM

Same for CC1CCC(C(=O)NCC(F)(F)F)CN1N(C)c1ncnc2[nH]ccc12 (stereo not shown) 100 to 1000 nM

Further, for Fc1ccc2ncn(-c3ncc4nc(-c5ccc(Br)cn5)n(C5CCOCC5)c4n3)c2c1 ? 100 to 1000 nM

Moving on to CC#CC(=O)N1CCC[C@@H](n2nc(-c3ccc(C(=O)Nc4cc(C(C)C)ccn4)cc3)c3c(N)ncnc32)C1 > 1000 nM

Also O=C(NCCC(F)(F)F)c1nn(CCCc2ccccc2)c2c1CN(c1ncnc3[nH]ccc13)CC2 ? 100 to 500 nM

Queued: CCC(CC)n1cc(-c2nc(-c3cnn(CC[C@@H](O)CO)c3)cn3nccc23)cn1 1000 to 10000 nM

Next up: Cn1cc(-c2cc3nccn3c(-c3cnn(C4(CC#N)CN(CC(F)(F)C(F)(F)F)C4)c3)n2)cn1 100 to 1000 nM

Now give it for CN(c1ccccc1CNc1nc(-c2cc(F)c(O)cc2CC(F)(F)F)nc2[nH]nc(C(N)=O)c12)S(C)(=O)=O too. 39.6 nM

Can you handle C[C@@H](Nc1c(C(N)=O)cnn2cc(N3CCOCC3=O)cc12)C(C)(C)F next? 11 nM

Proceed to CC(C)N1CC(CC#N)(n2cc(-c3nc(-c4cnn(C)c4)cc4nccn34)cn2)C1 > 1000 nM

How about CCC(=O)c1cnc(Nc2cc(CN)ncn2)cc1Nc1cccc(-c2ncn(C)n2)c1OC ? ≥ 500 nM

And then CCC(Cn1ccc2cnc(Nc3cnn(CC(=O)OCCO)c3)nc21)C(C)C (stereo not shown) , what is it? < 100 nM

What do we get for CCc1cc(O)c(F)cc1-c1cc2[nH]nc(-n3cccn3)c2c(NCc2ccccc2N(C)S(C)(=O)=O)n1 ? 90.6 nM

Also need CCC(=O)c1cnc(Nc2cnc(CN(C)C)cn2)cc1Nc1cccc(-c2ncn(C)n2)c1OC , thanks. ≥ 500 nM

---

Compiled record: pIC50 values for Tyrosine-protein kinase JAK3 (Homo sapiens, UniProt P52333) across several sources.
pIC50: −log10 of the molar value.

Worked examples, 5 molecules total:
| molecule | pIC50 |
| --- | --- |
| Cn1cc(-c2cc3nccn3c(-c3cnn(C4(CC#N)CN(S(=O)(=O)C5CC5)C4)c3)n2)cn1 | < 6.00 |
| C=CC(=O)Nc1cccc(Oc2nc(Nc3ccc(NC4CCN(C)CC4)c(F)c3)nc3ccoc23)c1 | ≥ 7.30 |
| C=CC(=O)N1CC[C@@H](Nc2nc(Nc3cn[nH]c3)nc3ccsc23)C1 | 7.00 to 8.00 |
| Cn1cc(-c2cc3nccn3c(-c3cnn(C4(CCF)CN(S(=O)(=O)CC5CC5)C4)c3)n2)cn1 | 6.00 to 7.00 |
| C=CC(=O)N1CC[C@@H](Nc2nc(Nc3cnn(C)c3)nn3cccc23)C1 | 7.00 to 8.00 |

Would you kindly share the measured pIC50 for CCC(CCCO)n1cc(-c2nc(-c3cnn(C)c3)cc3nccn23)cn1 (stereo not drawn) ? 6.00 to 7.00

C=CC(=O)N1CCC[C@@H](Nc2n[nH]c3nccc(Oc4ccc(-c5nc6ccccc6s5)cc4)c23)C1 ? 6.00 to 7.00

Also check Cn1cc(-c2cc3nccn3c(-c3cnn(C4(CC=C(F)F)CN(S(=O)(=O)C(F)(F)F)C4)c3)n2)cn1 7.00 to 8.00

What do you get for Cc1cc(NC(=O)c2ccc(Oc3ccnc4[nH]nc(N[C@@H]5CCCN(C(=O)/C=C/CN(C)C6CC6)C5)c34)cc2)nn1C ? < 5.00

Same question for Cc1cnc(Nc2ccc(NS(=O)(=O)c3ccc(C(F)(F)F)cc3)c(F)c2)nc1-c1cnn(C(C)C)c1 please. 7.41

Please answer likewise for CNC(=O)c1n[nH]c2cc(-c3cc(F)c(O)cc3C3CC3)nc(NCc3ccccc3N(C)S(C)(=O)=O)c12 7.28

Same question for CC1(C)[C@H](Nc2c(C(N)=O)cnn3cc(-c4cncc(C(=O)O)c4)cc23)CC[C@]1(C)N please. 7.82

Input C[C@H](c1ccc(F)cn1)n1c(=O)[nH]c2cnc(-c3cnn4ccncc34)nc21 > 7.00

Item: CCC(CC)n1cc(-c2nc(-c3cnn([C@@H](C)[C@@H](O)CO)c3)cn3nccc23)cn1 (single isomer, unassigned) 5.00 to 6.00

Same again, this time with CCNC(=O)c1ccc(Nc2nccc(-c3cnn(C4(CC#N)CN(C(=O)[C@@H]5CC5(F)F)C4)c3)n2)cc1C 6.10

Also check CCOC(=O)c1cnc2[nH]ccc2c1NC1CCC(CCC#N)C1 (single isomer, unassigned; stereoisomer 2) 7.00 to 8.00

Then what about the molecule CN1CC[C@@H](OC(=O)Cn2cc(Nc3ncc4ccn(C[C@H]5CC[C@H](O)CC5)c4n3)cn2)C1 ? > 7.00

Another molecule to check: CCC(=O)c1cnc(Nc2ccc(OC3COC3)c(C)n2)cc1Nc1cccc(-c2ncn(C)n2)c1OC 6.30 to 7.30

Consider next the molecule CCc1cc(O)c(F)cc1-c1cc2[nH]nc(C(=O)NC)c2c(NCCc2ccc(O)cc2)n1 in the same way. 7.58

# iterate: Cc1ccc(NC(=O)c2cc(C(F)(F)F)ccc2C(F)(F)F)cc1-c1ccc2c(c1)[nH]c1ncncc12 ≥ 6.30

Also check Cc1ccnc(-c2cnc3[nH]ccc3c2N[C@@H]2CCCN(C(=O)CC#N)C2)c1 ≥ 8.00

// next record Cn1c(=O)n([C@H]2CC[C@H](O)CC2)c2nc(-n3cnc4ccc(F)cc43)nc(N3CCC(F)CC3)c21 > 7.00
